Hello, the source for this data is ChEMBL document CHEMBL2331427, in case you need it.

Measured Activity values are reported for all entries that follow.
- System: Rattus norvegicus
- assayName: Analgesic activity in albino rat assessed as increase in tail withdrawal latency at 20 mg/kg, po after 2 hrs relative to control
- Type: functional
measurementName: Activity

{"inputSmiles": "CCOC(=O)Cc1nn2c(=O)c3c(C)c(C)sc3nc2[nH]1", "reading": "47%"}
{"inputSmiles": "Cc1sc2nc3ncc(-c4ccc(Br)cc4)nn3c(=O)c2c1C", "reading": "24%"}
{"inputSmiles": "Cc1sc2nc3[nH]c(Nc4ccc(Cl)cc4)nn3c(=O)c2c1C", "reading": "40%"}
{"inputSmiles": "Cc1sc2nc3ncc(-c4ccccc4)nn3c(=O)c2c1C", "reading": "34%"}
